The origin of these recorded values is patent US6265445A.

Here, each record is paired with measured Recovery Ampl data.
- Tested on: right ventricular papillary muscle of dogs
- procedure-details: Intracellular microelectrode technique: action potential parameters, ventricular papillary muscle
- Set-up: species or system mongrel dogs
- applied-conditions: 5 μM
Counter-ions that a name gives are not always drawn.
Please state the figure in V/s; there is no need to write the unit.

Examples with their reported Recovery Ampl follow.
CNC(=S)Nc1ccc(CCN(C)C(C)COc2c(C)cccc2C)cc1 (stereo not shown) [Example 27, sesquihydrochloride hemihydrate]
78
Cc1cccc(C)c1OC[C@H](C)N(C)CCc1ccc(NS(C)(=O)=O)cc1 [Example 16, hydrochloride]
75.8
CC(=O)Nc1ccc(CCN(C)C(C)COc2c(C)cccc2C)cc1 (stereo not shown) [Example 26, sesquihydrochloride monohydrate]
120.9
Cc1cccc(C)c1OCC(C)N(C)CCc1ccc(NS(C)(=O)=O)cc1.Cl (stereo not shown)
83.6
Cc1cccc(C)c1OC[C@@H](C)N(C)CCc1ccc(NS(C)(=O)=O)cc1.Cl
85.2
Cc1ccccc1OCCN(C)CCc1ccc(NS(C)(=O)=O)cc1.Cl
58.7

Query: Which Recovery Ampl value is on record for Cc1cccc(C)c1OCC(C)NCCc1ccc(NS(C)(=O)=O)cc1.Cl (stereo not shown) ?
Response: 136.3

----------
- Tested on: right ventricular papillary muscle of dogs
- procedure-details: Intracellular microelectrode technique: action potential parameters, ventricular papillary muscle
- Design: species or system mongrel dogs
- applied-conditions: 5 μM
Structures can show the parent of a compound that is named as a salt.
Here, each record is paired with measured APA (amplitude of the action potential) data.
Please state the figure in mV; there is no need to write the unit.

Cc1cccc(C)c1OC[C@H](C)N(C)CCc1ccc(NS(C)(=O)=O)cc1 [Example 16, hydrochloride]
105
Cc1cccc(C)c1OC[C@@H](C)N(C)CCc1ccc(NS(C)(=O)=O)cc1.Cl
106
Cc1cccc(C)c1OCC(C)NCCc1ccc(NS(C)(=O)=O)cc1.Cl (stereo not shown)
100

Query: Which APA (amplitude of the action potential) value is on record for Cc1cccc(C)c1OCC(C)N(C)CCc1ccc(NS(C)(=O)=O)cc1.Cl (stereo not shown) ?
Response: 106

----------
- procedure-details: in vivo
- applied-conditions: mouse, in vivo, po
metric-name: LD50 at 336 h

Query: Which LD50 at 336 h value is on record for Cc1cccc(C)c1OCC(C)N(C)CCc1ccc(NS(C)(=O)=O)cc1.Cl (stereo not shown) ?
Response: 550 to 650 mg/kg

----------
- Tested on: right ventricular papillary muscle of dogs
- procedure-details: Intracellular microelectrode technique: action potential parameters, ventricular papillary muscle
- Set-up: species or system mongrel dogs
- applied-conditions: 5 μM
Counter-ions that a name gives are not always drawn.
metric-name: APD90 (time of 90% repolarization) (ms)
Please state the figure in ms; there is no need to write the unit.

Query: Which APD90 (time of 90% repolarization) value is on record for Cc1cccc(C)c1OCC(C)NCCc1ccc(NS(C)(=O)=O)cc1.Cl (stereo not shown) [Example 22] ?
Response: 260

Query: Which APD90 (time of 90% repolarization) value is on record for Cc1cccc(C)c1OC[C@H](C)N(C)CCc1ccc(NS(C)(=O)=O)cc1 [Example 16, hydrochloride] ?
Response: 244

Query: Which APD90 (time of 90% repolarization) value is on record for Cc1cccc(C)c1OC[C@@H](C)N(C)CCc1ccc(NS(C)(=O)=O)cc1.Cl [Example 17] ?
Response: 249

Query: Which APD90 (time of 90% repolarization) value is on record for CC(=O)Nc1ccc(CCN(C)C(C)COc2c(C)cccc2C)cc1 (stereo not shown) [Example 26, sesquihydrochloride monohydrate] ?
Response: 250

Query: Which APD90 (time of 90% repolarization) value is on record for Cc1ccccc1OCCN(C)CCc1ccc(NS(C)(=O)=O)cc1.Cl [Example 14] ?
Response: 257

Query: Which APD90 (time of 90% repolarization) value is on record for Cc1cccc(C)c1OCC(C)N(C)CCc1ccc(NS(C)(=O)=O)cc1.Cl (stereo not shown) [Example 15] ?
Response: 261

Query: Which APD90 (time of 90% repolarization) value is on record for CNC(=S)Nc1ccc(CCN(C)C(C)COc2c(C)cccc2C)cc1 (stereo not shown) [Example 27, sesquihydrochloride hemihydrate] ?
Response: 250

----------
- Tested on: right ventricular papillary muscle of dogs
- procedure-details: Intracellular microelectrode technique: action potential parameters, ventricular papillary muscle
- Design: species or system mongrel dogs
- applied-conditions: 5 μM
- Description: The method used is essentially in agreement with the method of Papp et al. [J. Cardiovascular Pharmacol. Ther. 1, 287-296 (1996)]. Right ventricular papillary muscle and Purkinje's fibres were prepared from the hearts of mongrel dogs (weighing 5 to 10 kg each). […] The resting potential (RP), the amplitude of the action potential (APA) as well as the duration of the action potential (APD) were measured by using an IBM 386 compatible computer by means of an own-developed software. […]
Counter-ions that a name gives are not always drawn.
Kindly return label 1 if reported Vmax (maximum rate of depolarization) is no lower than 200 V/s; return label 0 if it is lower.

Cc1cccc(C)c1OC[C@@H](C)N(C)CCc1ccc(NS(C)(=O)=O)cc1.Cl [Example 17]
label 0
Cc1ccccc1OCCN(C)CCc1ccc(NS(C)(=O)=O)cc1.Cl [Example 14]
label 1
CNC(=S)Nc1ccc(CCN(C)C(C)COc2c(C)cccc2C)cc1 (stereo not shown) [Example 27, sesquihydrochloride hemihydrate]
label 0

Switching to the query record.
Query: Form field: Vmax (maximum rate of depolarization) at least 200 V/s? Entry: Cc1cccc(C)c1OCC(C)NCCc1ccc(NS(C)(=O)=O)cc1.Cl (stereo not shown) [Example 22]
Response: label 0

----------
Here, each record is paired with measured APA (amplitude of the action potential) data.
- Tested on: right ventricular papillary muscle of dogs
- procedure-details: Intracellular microelectrode technique: action potential parameters, ventricular papillary muscle
- Set-up: species or system mongrel dogs
- applied-conditions: 5 μM
Counter-ions that a name gives are not always drawn.
Please state the figure in mV; there is no need to write the unit.

CNC(=S)Nc1ccc(CCN(C)C(C)COc2c(C)cccc2C)cc1 (stereo not drawn) [Example 27, sesquihydrochloride hemihydrate]
88
CC(=O)Nc1ccc(CCN(C)C(C)COc2c(C)cccc2C)cc1 (stereo not drawn) [Example 26, sesquihydrochloride monohydrate]
105

Field: next compound
Query: Form field - read-out: APA (amplitude of the action potential); system: right ventricular papillary muscle of dogs; submitted item: Cc1ccccc1OCCN(C)CCc1ccc(NS(C)(=O)=O)cc1.Cl [Example 14]
Response: 114

----------
- System: right ventricular papillary muscle of dogs
- procedure-details: Intracellular microelectrode technique: action potential parameters, ventricular papillary muscle
- Set-up: species or system mongrel dogs
- applied-conditions: 5 μM; Gy: kinetics of rapid restoration
Counter-ions that a name gives are not always drawn.
Kindly return Met if reported Trecovery (recovery time constant of Vmax) is no lower than 300 ms; return Not met if it is lower.

CC(=O)Nc1ccc(CCN(C)C(C)COc2c(C)cccc2C)cc1 (stereo not shown) [Example 26, sesquihydrochloride monohydrate]
Not met

Query: Form field: Trecovery (recovery time constant of Vmax) at least 300 ms? Entry: CNC(=S)Nc1ccc(CCN(C)C(C)COc2c(C)cccc2C)cc1 (stereo not shown) [Example 27, sesquihydrochloride hemihydrate]
Response: Not met

Query: Form field: Trecovery (recovery time constant of Vmax) at least 300 ms? Entry: Cc1cccc(C)c1OC[C@@H](C)N(C)CCc1ccc(NS(C)(=O)=O)cc1.Cl
Response: Met

Query: Form field: Trecovery (recovery time constant of Vmax) at least 300 ms? Entry: Cc1ccccc1OCCN(C)CCc1ccc(NS(C)(=O)=O)cc1.Cl
Response: Not met

----------
- System: right ventricular papillary muscle of dogs
- procedure-details: Intracellular microelectrode technique: action potential parameters, ventricular papillary muscle
- Design: species or system mongrel dogs
- applied-conditions: 5 μM
Where a name gives a salt, the structure may show the parent alone.
metric-name: Vmax (maximum rate of depolarization) (V/s)
Please state the figure in V/s; there is no need to write the unit.

Cc1cccc(C)c1OCC(C)N(C)CCc1ccc(NS(C)(=O)=O)cc1.Cl (stereo not drawn)
203

Query: Which Vmax (maximum rate of depolarization) value is on record for Cc1cccc(C)c1OC[C@H](C)N(C)CCc1ccc(NS(C)(=O)=O)cc1 [Example 16, hydrochloride] ?
Response: 199

Query: Which Vmax (maximum rate of depolarization) value is on record for CC(=O)Nc1ccc(CCN(C)C(C)COc2c(C)cccc2C)cc1 (stereo not drawn) [Example 26, sesquihydrochloride monohydrate] ?
Response: 195

----------
Here, each record is paired with measured Trecovery (recovery time constant of Vmax) data.
- Test system: right ventricular papillary muscle of dogs
- procedure-details: Intracellular microelectrode technique: action potential parameters, ventricular papillary muscle
- Set-up: species or system mongrel dogs
- applied-conditions: 5 μM; Gy: kinetics of rapid restoration
Structures can show the parent of a compound that is named as a salt.

Examples with their reported Trecovery (recovery time constant of Vmax) follow.
Cc1cccc(C)c1OCC(C)N(C)CCc1ccc(NS(C)(=O)=O)cc1.Cl (stereo not drawn)
270.1 ms
Cc1cccc(C)c1OCC(C)NCCc1ccc(NS(C)(=O)=O)cc1.Cl (stereo not drawn)
337.8 ms

Query: Which Trecovery (recovery time constant of Vmax) value is on record for Cc1cccc(C)c1OC[C@H](C)N(C)CCc1ccc(NS(C)(=O)=O)cc1 [Example 16, hydrochloride] ?
Response: 249.5 ms
